All figures here come from patent US7371766B2.

# Tested on: A549
# TEST SUMMARY: cells
# DETAILS: Homo sapiens, A549, 48 h, read-out: Median Growth Inhibitory Concentration (GI50)
OUTCOME MEASURE: GI50 (µM)
The figure you give is taken to be in µM; do not add the unit.

Some compounds with recorded GI50:
INSERT INTO measurements (compound_structure_string, observed_result) VALUES
  ('OC(CCc1ccc(F)cc1F)CCc1ccc(F)cc1F', 18),
  ('O=C1C(=Cc2ccccc2O)CCCC1=Cc1ccccc1O', 2.6);

*Q* Looking for the measured GI50 of O=C(C=Cc1ccc(F)cc1F)C=Cc1ccc(F)cc1F , can you help?
*A* 8.9
